# assay-method-text: self-splicing fitness, log relative to wild type (ln ratio); higher = more splicing; Tetrahymena group I intron in knt gene, E. coli kanamycin selection, DiMSum; sequences stand for … in CUCUCU…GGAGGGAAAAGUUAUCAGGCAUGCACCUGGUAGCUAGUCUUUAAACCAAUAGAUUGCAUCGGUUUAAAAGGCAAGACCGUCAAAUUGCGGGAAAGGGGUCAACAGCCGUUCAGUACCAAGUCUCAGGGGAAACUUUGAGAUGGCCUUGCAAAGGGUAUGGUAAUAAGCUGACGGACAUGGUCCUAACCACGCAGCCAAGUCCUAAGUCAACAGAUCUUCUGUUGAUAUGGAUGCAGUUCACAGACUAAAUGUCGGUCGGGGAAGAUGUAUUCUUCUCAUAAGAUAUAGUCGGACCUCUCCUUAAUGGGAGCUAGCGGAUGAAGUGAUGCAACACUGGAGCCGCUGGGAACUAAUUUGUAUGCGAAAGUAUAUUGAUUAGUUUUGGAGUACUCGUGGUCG;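 note: selection with 25 µg/mL kanamycin versus none on LB agar overnight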
# condition-details: 30 °C
Decide by self-splicing fitness (ln): equal to or exceeding -2 means Criterion met, less means Criterion not met.

sequence-string | class-name
GUCCAGCAAUAUUACGUUCA | Criterion met
AACCAGCAAUAUUACGGGCG | Criterion met
ACGCAGCAAUAUUACGACUC | Criterion met
AAGCAGCAAUAUUACGGACU | Criterion met
GUGCAGCAAUAUUACGUUAU | Criterion met
GAUCAGCAAUAUUACGCAAC | Criterion met
GAUGAGCAAUAUUACGCUGA | Criterion not met
AGGGAGCAAUAUUACGACUA | Criterion not met
CCACAGCAAUAUUACGAACC | Criterion not met
CUAAAGCAAUAUUACGACUA | Criterion not met
CGGUAGCAAUAUUACGGAUU | Criterion not met
AAACAGCAAUAUUACGUACA | Criterion met
CGGCAGCAAUAUUACGCAGA | Criterion not met
CCCGAGCAAUAUUACGGAGA | Criterion not met
CGACAGCAAUAUUACGUCCG | Criterion met

* * *

# Lookup of reported self-splicing fitness (ln) keyed by entry
# assay-method-text: self-splicing fitness, log relative to wild type (ln ratio); higher = more splicing; Tetrahymena group I intron in knt gene, E. coli kanamycin selection, DiMSum; sequences stand for … in CUCUCU…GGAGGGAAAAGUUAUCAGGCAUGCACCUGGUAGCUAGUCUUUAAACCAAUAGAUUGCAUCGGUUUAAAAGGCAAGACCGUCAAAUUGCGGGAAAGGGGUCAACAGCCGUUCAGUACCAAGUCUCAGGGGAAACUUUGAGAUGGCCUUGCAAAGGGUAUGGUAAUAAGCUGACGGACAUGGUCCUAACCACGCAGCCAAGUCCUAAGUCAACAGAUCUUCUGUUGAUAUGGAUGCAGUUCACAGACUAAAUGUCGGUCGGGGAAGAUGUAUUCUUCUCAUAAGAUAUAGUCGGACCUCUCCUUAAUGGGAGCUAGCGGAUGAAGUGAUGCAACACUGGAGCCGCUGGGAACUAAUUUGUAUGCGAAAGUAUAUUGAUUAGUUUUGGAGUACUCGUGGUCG
# condition-details: 30 °C

sequence-string | self-splicing fitness (ln)
UCAUAGCAAUAUUACGGAUC | -3.73
CUGGAGCAAUAUUACGCCGU | -2.44
UUCGAGCAAUAUUACGAUAC | -3.34
UCUCAGCAAUAUUACGCGAG | -3.73
ACGAAGCAAUAUUACGGGCG | -1.15
CCUUAGCAAUAUUACGACUC | -3.05
UUACAGCAAUAUUACGUGGA | -1.88
AUAAAGCAAUAUUACGAAAG | -2.01
CGGUAGCAAUAUUACGGGUG | -0.483
CGAGAGCAAUAUUACGACCA | -2.78
CAUCAGCAAUAUUACGGAUA | -0.862
CUGAAGCAAUAUUACGCGAU | -0.358
GCUCAGCAAUAUUACGCGAG | -2.78
UUUAAGCAAUAUUACGCACU | -0.382
CAAAAGCAAUAUUACGUAUG | -2.89
CCUUAGCAAUAUUACGGCGC | -2.98

* * *

# assay-method-text: self-splicing fitness, log relative to wild type (ln ratio); higher = more splicing; Tetrahymena group I intron in knt gene, E. coli kanamycin selection, DiMSum; sequences stand for … in CUCUCU…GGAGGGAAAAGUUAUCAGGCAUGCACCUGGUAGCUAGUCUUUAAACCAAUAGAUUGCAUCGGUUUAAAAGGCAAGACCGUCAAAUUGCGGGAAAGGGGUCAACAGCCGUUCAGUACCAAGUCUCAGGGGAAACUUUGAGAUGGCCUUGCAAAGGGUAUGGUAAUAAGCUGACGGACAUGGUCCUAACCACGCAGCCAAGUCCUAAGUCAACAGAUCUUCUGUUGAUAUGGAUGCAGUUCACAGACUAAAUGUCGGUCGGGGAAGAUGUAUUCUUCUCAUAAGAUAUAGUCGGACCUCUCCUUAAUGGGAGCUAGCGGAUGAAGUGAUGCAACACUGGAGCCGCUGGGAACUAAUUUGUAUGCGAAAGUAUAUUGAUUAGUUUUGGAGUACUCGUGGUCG
# condition-details: 37 °C
outcome-measure: self-splicing fitness (ln)

sequence-string | value-reported
CUAAAGCAAUAUUACGUGAG | -0.2
CUGAAGCAAUAUUACGUACU | -2.92
AGACAGCAAUAUUACGAAUU | -1.27
CACCAGCAAUAUUACGAAGG | -0.304
CAAGAGCAAUAUUACGAGUG | -1.23
GAUGAGCAAUAUUACGCUGA | -2.46
CGACAGCAAUAUUACGACUA | 0.027
UAUCAGCAAUAUUACGAGCU | -1.35
ACAUAGCAAUAUUACGUUCG | -0.65
AUGGAGCAAUAUUACGCUGC | -2.95
CACGAGCAAUAUUACGACAU | -2.92
GAAUAGCAAUAUUACGUGGU | -2.74
CCGUAGCAAUAUUACGCGGA | -3.13
GACCAGCAAUAUUACGGAUA | 0.0596
GUACAGCAAUAUUACGACAC | 0.291
GCCAAGCAAUAUUACGCCGA | -0.102

* * *

# assay-method-text: self-splicing fitness, log relative to wild type (ln ratio); higher = more splicing; Tetrahymena group I intron in knt gene, E. coli kanamycin selection, DiMSum; sequences stand for … in CUCUCU…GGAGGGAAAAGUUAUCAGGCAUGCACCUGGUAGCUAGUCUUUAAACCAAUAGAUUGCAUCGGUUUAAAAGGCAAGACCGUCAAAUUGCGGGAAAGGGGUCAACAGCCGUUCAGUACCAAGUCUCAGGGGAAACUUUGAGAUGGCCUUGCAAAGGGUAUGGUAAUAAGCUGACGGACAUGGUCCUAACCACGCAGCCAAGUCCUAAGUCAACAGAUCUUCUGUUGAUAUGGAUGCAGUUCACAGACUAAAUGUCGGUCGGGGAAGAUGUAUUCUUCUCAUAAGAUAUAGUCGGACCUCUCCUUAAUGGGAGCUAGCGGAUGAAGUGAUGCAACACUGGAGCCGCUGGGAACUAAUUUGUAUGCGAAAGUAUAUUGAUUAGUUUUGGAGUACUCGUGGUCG
# condition-details: 37 °C
# Lookup of reported self-splicing fitness (ln) keyed by entry
outcome-measure: self-splicing fitness (ln)

sequence-string | outcome-measure | value-reported
UGCCAGCAAUAUUACGGUAG | self-splicing fitness (ln) | -0.428
UCAGAGCAAUAUUACGGAUG | self-splicing fitness (ln) | -2.06
GCCCAGCAAUAUUACGGCAC | self-splicing fitness (ln) | -0.0437
CCCGAGCAAUAUUACGCGGG | self-splicing fitness (ln) | -3.45
AAUAAGCAAUAUUACGUUCU | self-splicing fitness (ln) | 0.0226
CGAGAGCAAUAUUACGUUGU | self-splicing fitness (ln) | -1.57
GCCGAGCAAUAUUACGGAUG | self-splicing fitness (ln) | -0.937
GCUAAGCAAUAUUACGAAAC | self-splicing fitness (ln) | -0.452
CUUGAGCAAUAUUACGCCGA | self-splicing fitness (ln) | -2.7
GCAGAGCAAUAUUACGCUGU | self-splicing fitness (ln) | -2.87
ACACAGCAAUAUUACGAUCU | self-splicing fitness (ln) | 0.14
CUCGAGCAAUAUUACGGUGU | self-splicing fitness (ln) | -2.7
CGAAAGCAAUAUUACGCGGC | self-splicing fitness (ln) | -2.38
GGAAAGCAAUAUUACGUUUA | self-splicing fitness (ln) | -1.16
CCCAAGCAAUAUUACGGAUU | self-splicing fitness (ln) | -2.71
UCAUAGCAAUAUUACGGAUC | self-splicing fitness (ln) | -2.38
ACGCAGCAAUAUUACGUACA | self-splicing fitness (ln) | -0.547
GGUGAGCAAUAUUACGGGAU | self-splicing fitness (ln) | -2.62
UGUGAGCAAUAUUACGUCAA | self-splicing fitness (ln) | -2.65
UGGUAGCAAUAUUACGGCAU | self-splicing fitness (ln) | -0.405
CAAGAGCAAUAUUACGCAUU | self-splicing fitness (ln) | -2.51
CAGUAGCAAUAUUACGGGUC | self-splicing fitness (ln) | -1.32
CUAUAGCAAUAUUACGAAUA | self-splicing fitness (ln) | -1.47
CUGAAGCAAUAUUACGAUAU | self-splicing fitness (ln) | -1.27
CUCUAGCAAUAUUACGGCUU | self-splicing fitness (ln) | -3.52
CGACAGCAAUAUUACGAGGA | self-splicing fitness (ln) | -2.53
CGCCAGCAAUAUUACGCCUU | self-splicing fitness (ln) | -2.29
AGACAGCAAUAUUACGCGAG | self-splicing fitness (ln) | -0.818
UCUCAGCAAUAUUACGAGAA | self-splicing fitness (ln) | -0.803
ACGAAGCAAUAUUACGCAUG | self-splicing fitness (ln) | -0.62
GGCGAGCAAUAUUACGUAUC | self-splicing fitness (ln) | -0.00113
GAAGAGCAAUAUUACGAGCA | self-splicing fitness (ln) | -1.33
AUACAGCAAUAUUACGAAUC | self-splicing fitness (ln) | -2.3
CAGCAGCAAUAUUACGACAA | self-splicing fitness (ln) | -1.67
UCAUAGCAAUAUUACGACAG | self-splicing fitness (ln) | -1.26
AGAAAGCAAUAUUACGGCUA | self-splicing fitness (ln) | 0.117
GGACAGCAAUAUUACGUGAC | self-splicing fitness (ln) | -1.23
UAACAGCAAUAUUACGCCUA | self-splicing fitness (ln) | 0.598
GAAUAGCAAUAUUACGCUUG | self-splicing fitness (ln) | -0.818
CACUAGCAAUAUUACGUAUU | self-splicing fitness (ln) | -2.11
UAAAAGCAAUAUUACGUGCG | self-splicing fitness (ln) | -0.119
UUUUAGCAAUAUUACGGGGU | self-splicing fitness (ln) | -1.08
GUCAAGCAAUAUUACGCUUA | self-splicing fitness (ln) | -0.67
UUCGAGCAAUAUUACGUCGU | self-splicing fitness (ln) | -1.24
GGAAAGCAAUAUUACGCUCG | self-splicing fitness (ln) | 0.329
CGCAAGCAAUAUUACGGUAG | self-splicing fitness (ln) | -0.388
AAGUAGCAAUAUUACGCCAG | self-splicing fitness (ln) | -0.996
CCCUAGCAAUAUUACGGGUA | self-splicing fitness (ln) | -3.01
CAUAAGCAAUAUUACGAAUA | self-splicing fitness (ln) | -2.9
GUCGAGCAAUAUUACGUUCC | self-splicing fitness (ln) | -0.593
CUUCAGCAAUAUUACGGGUG | self-splicing fitness (ln) | 0.33
GGCUAGCAAUAUUACGAACA | self-splicing fitness (ln) | -0.682
GUCUAGCAAUAUUACGUAGU | self-splicing fitness (ln) | 0.276
GAUAAGCAAUAUUACGUUAU | self-splicing fitness (ln) | -1.63
AACCAGCAAUAUUACGAUUG | self-splicing fitness (ln) | -1.48
GGCUAGCAAUAUUACGGCUU | self-splicing fitness (ln) | 0.197
AAUAAGCAAUAUUACGAACC | self-splicing fitness (ln) | -0.414
GGCAAGCAAUAUUACGACUA | self-splicing fitness (ln) | 0.336
GACUAGCAAUAUUACGCUAC | self-splicing fitness (ln) | -1.33
GAUUAGCAAUAUUACGGGAU | self-splicing fitness (ln) | -1.14
GUCUAGCAAUAUUACGGAAU | self-splicing fitness (ln) | 0.135
CGAAAGCAAUAUUACGCUCA | self-splicing fitness (ln) | 0.0149
UAGUAGCAAUAUUACGGAGG | self-splicing fitness (ln) | -1.43
UGAGAGCAAUAUUACGAUAU | self-splicing fitness (ln) | -2.8
UGCAAGCAAUAUUACGUUCU | self-splicing fitness (ln) | -0.423
CUGCAGCAAUAUUACGGUCC | self-splicing fitness (ln) | -2.99
CAACAGCAAUAUUACGAUAU | self-splicing fitness (ln) | -2.2

Values from the supplement of paper PMC7877785
